System: MDA-MB-231
Assay: Cytotoxicity against human MDA-MB-231 cells assessed as growth inhibition at 10 uM after 24 hrs by MTT assay (reference value: 0.23 %)
Type: functional
Settings: MDA-MB-231, 24 h, read-out: GI

Molecule: Cc1ccc(C(=O)Nc2ccc(S(=O)(=O)O)c3cc(S(=O)(=O)O)cc(S(=O)(=O)O)c23)cc1NC(=O)c1cccc(NC(=O)Nc2cccc(C(=O)Nc3cc(C(=O)Nc4ccc(S(=O)(=O)O)c5cc(S(=O)(=O)O)cc(S(=O)(=O)O)c45)ccc3C)c2)c1 [SURAMIN]
Target entity: MDA-MB-231
Measurement unit: %
inhibition of growth at 10 µM: 26

Molecule: COc1ccc(/C=C2\Oc3ccccc3C2=O)cc1 [4'-METHOXY-AURONE]
Target entity: MDA-MB-231
Measurement unit: %
inhibition of growth at 10 µM: 18.1

Molecule: O=C1/C(=C/c2ccc(F)cc2)Oc2ccccc21
Target entity: MDA-MB-231
Measurement unit: %
inhibition of growth at 10 µM: 16.5

Molecule: O=C1/C(=C/c2ccc(Br)cc2)Oc2ccccc21
Target entity: MDA-MB-231
Measurement unit: %
inhibition of growth at 10 µM: 30.8
